# experimentalDetails: Aqueous solubility, pH dependent
# Assay type: physicochemical
# experimentalSetup: aqueous medium at pH 3, pH 3, aqueous buffer
outcomeMeasure: solubility (µg/mL)
// return numeric value only (unit: µg/mL, not printed)

Query string: Please report solubility for the following molecule: CCCCCc1cc(O)c2c(c1)OC(C)(C)C1CCC(C)=CC21 (stereo not shown) [THC, Δ^9-Tetrahydrocannabinol, reference compound]
Result string: 2.23

====

# experimentalDetails: Chemical stability pH dependent at 25° C.
# Format: physicochemical
# experimentalSetup: Water, 25° C.
Recorded First order rate constant values for a group of molecules are listed next.

# example entries with known answers
CCCCCc1cc(OC(=O)[C@@H](N)CCC(N)=O)c2c(c1)OC(C)(C)[C@@H]1CCC(C)=C[C@@H]21 [THC-Glutaminate (9), Δ^9-THC-glutaminate] ... 32.72 ± 15.19 ×10^−3 h^−1
CCCCCc1cc(OC(=O)CCCc2ccc(NC(=O)CCC(=O)O)cc2)c2c(c1)OC(C)(C)[C@@H]1CCC(C)=C[C@@H]21 ... 0.00481 h⁻¹
CCCCCc1cc(OC(=O)C(N)C(C)C)c2c(c1)OC(C)(C)C1CCC(C)=CC21 (stereo not shown) [THC-Valinate (6), Δ^9-THC-valinate] ... 23.70 ± 0.77 ×10^−3 h^−1
CCCCCc1cc(OC(=O)[C@@H](N)Cc2ccc(O)cc2)c2c(c1)OC(C)(C)[C@@H]1CCC(C)=C[C@@H]21 [THC-Tyrosinate (11), Δ^9-THC-tyrosinate] ... 9.40 ± 0.88 ×10^−3 h^−1
CCCCCc1cc(OC(=O)CNC)c2c(c1)OC(C)(C)[C@@H]1CCC(C)=C[C@@H]21 [THC-Sarcosinate (7), Δ^9-THC-sarcosinate] ... 25.45 ± 21.99 ×10^−3 h^−1

The record that follows has no First order rate constant shown yet.
Query string: Please report First order rate constant for the following molecule: CCCCCc1cc(OC(=O)C(N)CC(C)C)c2c(c1)OC(C)(C)C1CCC(C)=CC21 (stereo not shown) [THC-Leucinate (8), Δ^9-THC-leucinate]
Result string: 8.51 ± 2.80 ×10^−3 h^−1

====

# experimentalDetails: In vivo ocular bioavailability of THC after topical formulations
# experimentalSetup: male, New Zealand albino, rabbit, sclera, topical, 50 μL of 0.1% w/v THC
outcomeMeasure: concentration at 1 h (ng/g)
// return numeric value only (unit: ng/g, not printed)

Query string: Please report concentration at 1 h for the following compound: CCCCCc1cc(O)c2c(c1)OC(C)(C)C1CCC(C)=CC21 (stereo not shown) [THC, Δ^9-Tetrahydrocannabinol, reference compound]
Result string: 416

====

# experimentalDetails: Aqueous solubility, pH dependent
# Assay type: physicochemical
# experimentalSetup: aqueous medium at pH 2, pH 2, aqueous buffer
outcomeMeasure: solubility (µg/mL)
// return numeric value only (unit: µg/mL, not printed)

Query string: Please report solubility for the following compound: CCCCCc1cc(O)c2c(c1)OC(C)(C)C1CCC(C)=CC21 (stereo not shown) [THC, Δ^9-Tetrahydrocannabinol, reference compound]
Result string: 0.95

====

# experimentalDetails: Control (IPBS) stability for the buccal homogenate study
# Format: physicochemical
Recorded K values for a group of compounds are listed next.

# example entries with known answers
CCCCCc1cc(OC(=O)C(NC(=O)CCC(=O)O)C(C)C)c2c(c1)OC(C)(C)C1CCC(C)=CC21 (stereo not shown) [THC-Valinate-HS (15), THC-valinate-hemisuccinate] ... 0.40 ± 0.02 ×10^−3 min^−1
CCCCCc1cc(OC(=O)[C@@H](N)Cc2ccc(O)cc2)c2c(c1)OC(C)(C)[C@@H]1CCC(C)=C[C@@H]21 [THC-Tyrosinate (11), Δ^9-THC-tyrosinate] ... 1.11 ± 0.04 ×10^−3 min^−1
CCCCCc1cc(OC(=O)[C@@H](N)CCC(N)=O)c2c(c1)OC(C)(C)[C@@H]1CCC(C)=C[C@@H]21 [THC-Glutaminate (9), Δ^9-THC-glutaminate] ... 26.30 ± 0.14 ×10^−3 min^−1
CCCCCc1cc(OC(=O)[C@@H](N)Cc2c[nH]c3ccccc23)c2c(c1)OC(C)(C)[C@@H]1CCC(C)=C[C@@H]21 [THC-Tryptophanate (10), Δ^9-THC-tryptophinate] ... 0.77 ± 0.02 ×10^−3 min^−1
CCCCCc1cc(OC(=O)C(N)CC(C)C)c2c(c1)OC(C)(C)C1CCC(C)=CC21 (stereo not shown) [THC-Leucinate (8), Δ^9-THC-leucinate] ... 5.49 ± 0.46 ×10^−3 min^−1
CCCCCc1cc(OC(=O)CNC)c2c(c1)OC(C)(C)[C@@H]1CCC(C)=C[C@@H]21 [THC-Sarcosinate (7), Δ^9-THC-sarcosinate] ... 23.47 ± 1.60 ×10^−3 min^−1

The record that follows has no K shown yet.
Query string: Please report K for the following compound: CCCCCc1cc(OC(=O)C(N)C(C)C)c2c(c1)OC(C)(C)C1CCC(C)=CC21 (stereo not shown) [THC-Valinate (6), Δ^9-THC-valinate]
Result string: 3.66 ± 0.68 ×10^−3 min^−1
